src = the supplement of paper PMC10567573

B1: CLPTM1 (parent)
chain: LGCYAVYSLLYLEHKGWYSWVLSM

variants of: B1; assay: protein stability index of a GFP-peptide fusion (GPS, HEK-293T) (PSI 1-6); higher = more stable; details: c terminus: a fixed tail appended;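 note: lentivirally expressed fusions sorted by FACS into six bins by GFP to DsRed ratio, PSI derived from sequencing read proportions per bin multiplied by bin number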
Quantity Measured: protein stability index

INSERT INTO measurements (record_sequence, quantity_measured, recorded_measurement) VALUES
  ('LGCLAVYSLLYLEHKGWYSWVLSM [Y4L]', 'protein stability index', 3.04),
  ('LGCYAVYSLLYLEHKGWYCWVLSM [S19C]', 'protein stability index', 3.08),
  ('LGCYAVISLLYLEHKGWYSWVLSM [Y7I]', 'protein stability index', 3.09);
